# target of assay: T1, human TNF-α (human, UniProt P01375 77-233, biotin label in the ELISA (site not stated); unlabelled in the L929 bioassay)
# T1 construct: also called hTNF; hTNF-α
# T1 sequence (P01375 77-233 R107D limits assumed): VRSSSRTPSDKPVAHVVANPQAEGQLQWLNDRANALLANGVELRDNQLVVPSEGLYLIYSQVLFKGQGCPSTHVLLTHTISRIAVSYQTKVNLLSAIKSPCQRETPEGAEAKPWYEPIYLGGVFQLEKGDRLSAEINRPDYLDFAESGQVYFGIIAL
# experimental details: ELISA; IgG captured on goat anti-human IgG-Fc, serially diluted biotinylated human TNF, streptavidin-HRP
reported property: pEC50
Quick note: pEC50 values are minus log10 of concentrations in mol/L.

>  <binder>
AE11-5 AM2 (antibody, V domains shown, Full length IgG converted from scFv clone J703M1S3#13; Human IgG1 (hCg1,z,non-a,mut(234,235)) with human kappa; also called J703M1S3#13) VH: EVQLVQSGAEVKKPGSSVKVSCKASGGTFSWYAISWVRQAPGQGLEWMGGITPILGAANYAQKFQGRVTITADESTSTVYMELSSLRSEDTAVYYCARGVYYDPKRADYWGQGTLVTVSS VL: EIVLTQSPDFQSVTPKEKVTITCRASQSIGSTLHWYQQKPDQSPKLLIKHASQSNSGVPSRFSGSGSGTDFTLTINSLEAEDAATYYCHQSSSLPPPTFGQGTKVEI

>  <recorded number>
6.28

$$$$
>  <binder>
AE11-5 AM9 (antibody, V domains shown, Full length IgG converted from scFv clone J703M1S3#69; Human IgG1 (hCg1,z,non-a,mut(234,235)) with human kappa; also called J703M1S3#69) VH: EVQLVQSGAEVKKPGSSVKVSCKASGGTFSWYAISWVRQAPGQGLEWMGGITPILGSPIYAQKFQGRVTITADESTSTVYMELSSLRSEDTAVYYCARGIYYDPKRADYWGQGTLVTVSS VL: EIVLTQSPDFQSVTPKEKVTITCRASQSIGSSLHWYQQKPDQSPKLLIKHVSQSLSGVPSRFSGSGSGTDFTLTINSLEAEDAATYYCHQRSSSPSPTFGQGTKVEIK

>  <recorded number>
7.78

$$$$

Here's the next entry for you.
Lookup: Tell me the measured pEC50 of AE11-5 AM6 (antibody, V domains shown, Full length IgG converted from scFv clone J703M1S3#35; Human IgG1 (hCg1,z,non-a,mut(234,235)) with human kappa; also called J703M1S3#35) VH: EVQLVQSGAEVKKPGSSVKVSCKASGGTFSWYAISWVRQAPGQGLEWMGGITPILGSATYAQKFQGRVTITADESTSTVYMELSSLRSEDTAVYYCARGIYYDPKRADYWGQGTLVTVSS VL: EIVLTQSPDFQSVTPKEKVTITCRASQTIGSSLHWYQQKPDQSPKLLIKHASQSISGVPSRFSGSGSGTDFTLTINSLEAEDAATYYCHQTSSLPTPTFGQGTKVEIK , please.
Found: 8.86
